// data source = ChEMBL document CHEMBL1156683

- experiment: Octanol-MOPS buffer distribution coefficient, DC at pH 7.4
- Format: physicochemical
- experimentalContext: octanol/water
D by entry:
Answer using only a numeral; do not append any unit.

Request: Recorded D of Cn1cc(O)c(=O)cc1CN1CCCCC1 , please.
Response: 3.493

Request: CCn1ccc(=O)c(O)c1C(C)O (centres undefined) ?
Response: 0.266

Request: CC(O)c1c(O)c(=O)ccn1CCN1CCCCC1 (centres undefined) ?
Response: 0.908

Request: Cc1cc(=O)c(O)c(CN2CCCCC2)n1C ?
Response: 2.536

New cases:
Request: Recorded D of CCN(CC)CCn1ccc(=O)c(O)c1C , please.
Response: 0.493

Request: Cc1cc(=O)c(O)c(CN2CCOCC2)n1C ?
Response: 0.364

Request: O=c1ccn(CCN2CCCCC2)c(CO)c1O ?
Response: 0.501

Request: Cc1c(O)c(=O)ccn1CCN1CCCCC1 ?
Response: 0.96

Request: Cc1c(O)c(=O)ccn1CCN(C)C ?
Response: 0.154

====

- experiment: Dissociation constant, pKa corresponding to dissociation of the 3-hydroxyl group by spectrophotometric titration
- Assay type: physicochemical
readoutKind: pKa
Answer using only a numeral; do not append any unit.

Past entries and their recorded results:
Request: Recorded pKa of Cc1c(O)c(=O)ccn1CCCn1ccnc1 , please.
Response: 9.82

Request: Cc1c(O)c(=O)ccn1CCN1CCCCC1 ?
Response: 9.71

Request: CCc1c(O)c(=O)ccn1CCCn1ccnc1 ?
Response: 9.66

Request: Cc1cc(=O)c(O)c(CN2CCCCC2)n1C ?
Response: 10.3

Request: Cc1cc(=O)c(O)c(CN2CCOCC2)n1C ?
Response: 9.72

New cases:
Request: Recorded pKa of O=c1cc(CN2CCCCC2)n(CCN2CCCCC2)cc1O , please.
Response: 8.95

Request: CCc1c(O)c(=O)ccn1CCN(C)C ?
Response: 9.58

Request: Cc1c(O)c(=O)ccn1CCN1CCOCC1 ?
Response: 9.68

Request: O=c1ccn(CCN2CCCCC2)c(CO)c1O ?
Response: 9.24

Request: CCN(CC)CCn1ccc(=O)c(O)c1C ?
Response: 9.6

====

- experiment: Partition coefficient, log P of the compound
- Assay type: physicochemical
- experimentalContext: octanol/water
logP by entry:
Answer using only a numeral; do not append any unit.

Request: Recorded logP of Cc1c(O)c(=O)ccn1CCN(C)C , please.
Response: -0.657

New cases:
Request: Recorded logP of Cc1c(O)c(=O)ccn1CCCn1ccnc1 , please.
Response: -0.392

Request: CCc1c(O)c(=O)ccn1CCN1CCCCC1 ?
Response: 0.946

Request: Cn1c(CO)cc(=O)c(O)c1CN1CCCCC1 ?
Response: 0.295

====

- experiment: Dissociation constant, pKa corresponding to deprotonation of the basic substituent by potentiometric titration
- Format: physicochemical
readoutKind: pKa

Past entries and their recorded results:
Request: Recorded pKa of CCN(CC)CCn1ccc(=O)c(O)c1C , please.
Response: 7.53

Request: Cn1cc(O)c(=O)cc1CN1CCCCC1 ?
Response: 6.74

Request: Cc1c(O)c(=O)ccn1CCN(C)C ?
Response: 7.05

Request: CC(O)c1c(O)c(=O)ccn1CCN1CCCCC1 (stereo unspecified) ?
Response: 7.37

Request: Cc1c(O)c(=O)ccn1CCN1CCCCC1 ?
Response: 7.42

New cases:
Request: Recorded pKa of CCc1c(O)c(=O)ccn1CCN(C)C , please.
Response: 6.88

Request: CCc1c(O)c(=O)ccn1CCCn1ccnc1 ?
Response: 6.55

Request: Cc1c(O)c(=O)ccn1CCN1CCOCC1 ?
Response: 4.89

Request: Cc1c(O)c(=O)ccn1CCCn1ccnc1 ?
Response: 6.6

Request: O=c1ccn(CCN2CCCCC2)c(CO)c1O ?
Response: 7.35
